Biological target: GPR41 (Mus musculus)
Construct: gene Ffar3; mouse GPR41 cDNA in pcDNA5/FRT/TO, expressed in Flp-In T-Rex HEK 293 cells
Sequence (Q3UFD7 1-319): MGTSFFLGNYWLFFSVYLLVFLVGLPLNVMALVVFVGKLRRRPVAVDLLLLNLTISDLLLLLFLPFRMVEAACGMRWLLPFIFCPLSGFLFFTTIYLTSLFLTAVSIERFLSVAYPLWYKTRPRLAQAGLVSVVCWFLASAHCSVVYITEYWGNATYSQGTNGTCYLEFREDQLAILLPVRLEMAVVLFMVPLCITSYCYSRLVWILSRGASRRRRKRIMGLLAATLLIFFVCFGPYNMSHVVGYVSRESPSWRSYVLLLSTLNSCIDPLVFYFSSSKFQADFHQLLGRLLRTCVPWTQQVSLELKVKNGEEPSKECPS
Test: inhibition of forskolin-induced cAMP in doxycycline-inducible mouse GPR41 HEK293 cells
Assay type: cell-based
pEC50: −log10 of the molar value.
ASSAY READOUT: pEC50

molecule="COc1cc(/C=C/C(=O)O)ccc1O [HMCA, 4-hydroxy-3-methoxycinnamic acid]" quantitative_result=2.25

* * *

Molecular target: GPR41 (Mus musculus)
Construct: gene Ffar3; mouse GPR41 cDNA in pcDNA5/FRT/TO, expressed in Flp-In T-Rex HEK 293 cells
Sequence (Q3UFD7 1-319): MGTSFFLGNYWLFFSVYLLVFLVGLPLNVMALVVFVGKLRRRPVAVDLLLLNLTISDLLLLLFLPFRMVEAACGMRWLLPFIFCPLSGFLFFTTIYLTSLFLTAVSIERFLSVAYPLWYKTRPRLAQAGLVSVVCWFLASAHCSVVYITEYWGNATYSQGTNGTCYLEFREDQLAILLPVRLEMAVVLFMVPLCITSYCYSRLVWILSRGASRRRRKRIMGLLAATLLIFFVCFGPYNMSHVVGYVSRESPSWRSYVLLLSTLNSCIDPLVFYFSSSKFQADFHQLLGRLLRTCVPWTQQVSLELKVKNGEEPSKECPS
Experiment: inhibition of forskolin-induced cAMP in doxycycline-inducible mouse GPR41 HEK293 cells; Dox(-) controls inactive
Format: cell-based
ASSAY READOUT: EC50 (µM)

compound="COc1cc(CCC(=O)O)ccc1O [HMPA]" quantitative_result=2360
